meta.source: PubChem BioAssay (NCI)

# Test system: COLO 205 colon
# assay_info: NCI tumour cell line growth inhibition, 48 h
measured_endpoint: TGI

What TGI value was documented for this molecule, `CC(=O)c1c(P(=O)(OC(C)C)OC(C)C)nn(-c2ccc([N+](=O)[O-])cc2)c1C` ?
> 100 µM

What TGI value was documented for this molecule, `FC(F)(F)c1ccc(-c2cncn2-c2ccccc2)cc1` ?
47.1 µM

What TGI value was documented for this molecule, c1ccc(NNN2NC(c3ccccc3)C2c2ccccc2)cc1 (stereo not given) ?
> 100 µM

What TGI value was documented for this molecule, COc1cccc(C2C(C(=O)O)=C(CO)Oc3cc4c(cc32)OCO4)c1OC (stereo not given) ?
> 100 µM

What TGI value was documented for this molecule, `Cc1c(C(N)=O)sc2c1c(=O)n(Cc1ccccc1)c1nnc(SCC(=O)Nc3ccc(Cl)cc3)n21` ?
> 100 µM

What TGI value was documented for this molecule, O=C1c2ccccc2CCC1C(O)(C(F)(F)F)C(F)(F)F (stereo not given) ?
> 100 µM

What TGI value was documented for this molecule, Clc1ccc(/C=C2\CCCC3C2=Nc2ccccc2NC3c2ccc(Cl)cc2)cc1 (stereo not given) ?
8.2 µM

What TGI value was documented for this molecule, `CC1(C)C(=O)/C(=C\c2ccccn2)C[C@]2(C)[C@H]3CC[C@@H]4[C@@H](C(=O)/C=C/c5ccccn5)CC[C@@]4(C)[C@]3(C)CC[C@@H]12` ?
4.38 µM

What TGI value was documented for this molecule, O=C(O)C(Cc1c[nH]c2ccccc12)C(=O)NO (stereo not given) ?
> 100 µM

What TGI value was documented for this molecule, `COC(=O)c1cc2c3c(c1)Oc1cc(C(=O)OC)cc4c1C3c1c(cc(C(=O)OC)cc1O4)O2` ?
> 91.5 µM

---

# Tested on: CCRF-CEM leukemia
# assay_info: NCI tumour cell line growth inhibition, 48 h
For each record, write down the corresponding TGI.

What TGI value was documented for this compound, `N#CC(=N)c1ncn(CCO)c1NC(=O)C(F)(F)F` ?
> 100 µM

What TGI value was documented for this compound, `Cc1c2cnccc2c(C)c2c1c1cc(CO)ccc1n2C` ?
2.61 µM

What TGI value was documented for this compound, COc1ccc(/C=N/C2=C(C#N)C(c3ccccc3)c3c(ccc4ccccc34)O2)cc1 (stereo not given) ?
> 100 µM

What TGI value was documented for this compound, O=C1c2ccccc2CCC1C(O)(C(F)(F)F)C(F)(F)F (stereo not given) ?
> 100 µM

What TGI value was documented for this compound, Nc1nc(N)c2cc(CNc3ccc(C(=O)NC(CC(=O)O)C(=O)O)cc3)ccc2n1 (stereo not given) ?
> 100 µM

What TGI value was documented for this compound, `Cc1cc(C)c(OC(=O)Nc2cccc3ccccc23)c(-c2ccccc2)c1` ?
> 100 µM

What TGI value was documented for this compound, `Cc1ccc(O)c(N=Nc2ccc(S(=O)(=O)O)cc2)n1` ?
> 100 µM

What TGI value was documented for this compound, Cc1cccc(C)c1NC(=O)C(=O)C(C#N)c1ccccc1Cl (stereo not given) ?
> 100 µM

What TGI value was documented for this compound, `Cn1ccnc1Sc1ccc(/C=N/NC(=O)c2ccccc2[N+](=O)[O-])cc1[N+](=O)[O-]` ?
> 100 µM

What TGI value was documented for this compound, `O=C(C[Si](CC(=O)c1cccc(C(F)(F)F)c1)CC(=O)c1cccc(C(F)(F)F)c1)c1cccc(C(F)(F)F)c1` ?
10.6 µM

---

# Test system: MCF7 breast
# assay_info: NCI tumour cell line growth inhibition, 48 h
For each record, write down the corresponding GI50.

What GI50 value was documented for this compound, `Cn1cc(C2=C(c3cn(CCCO)c4ccccc34)C(=O)NC2=O)c2ccccc21` ?
2660 nM

What GI50 value was documented for this compound, `Cc1c(C(N)=O)sc2c1c(=O)n(Cc1ccccc1)c1nnc(SCC(=O)Nc3ccc(Cl)cc3)n21` ?
6610 nM

What GI50 value was documented for this compound, `CC1(C)C(=O)/C(=C\c2ccccn2)C[C@]2(C)[C@H]3CC[C@@H]4[C@@H](C(=O)/C=C/c5ccccn5)CC[C@@]4(C)[C@]3(C)CC[C@@H]12` ?
405 nM

What GI50 value was documented for this compound, O=C1OCC2=C1C(c1cccc(Cl)c1)c1cc3c(cc1N2CCO)OCO3 (centres undefined) ?
313 nM

What GI50 value was documented for this compound, CCOC(=O)C1=C(C)N(c2ccc(OC)cc2)C2(O)C=CC(=O)C3C(=O)N(c4ccccc4)C(=O)C132 (centres undefined) ?
2600 nM

What GI50 value was documented for this compound, `Cc1c(C(=O)O)n(-c2ccc(Cl)cc2)c2ncnc(N)c12` ?
> 100000 nM

What GI50 value was documented for this compound, `COc1cc(O)c2c(=O)c(OC)c(-c3ccc(OC)c(OC)c3)oc2c1.[Co]` ?
> 100000 nM

What GI50 value was documented for this compound, `C1CN1c1nc(N2CC2)nc(N2CC2)n1` ?
1390 nM

What GI50 value was documented for this compound, CC1CN1C1=CC(=O)c2c(c(CO)cn2C)C1=O (centres undefined) ?
63.4 nM

What GI50 value was documented for this compound, `CN([O-])c1nc(N(C)[O-])nc(N2CCOCC2)n1.CN([O-])c1nc(N(C)[OH2+])nc(N2CCOCC2)n1.[Fe+3]` ?
> 100000 nM

What GI50 value was documented for this compound, `Cc1nc2cc(-n3c(-c4ccc(F)cc4)nc4ccccc4c3=O)ccc2n1Cc1ccccc1` ?
2240 nM

What GI50 value was documented for this compound, `O=C(Nc1cccc(-c2cccc(F)c2)c1)C1CCN(Cc2cccc3cccnc23)CC1` ?
1800 nM

What GI50 value was documented for this compound, `CN1CCN(c2ccc3nc(-c4c5cccccc-5[nH]c4=O)[nH]c3c2)CC1` ?
6270 nM

What GI50 value was documented for this compound, CO[C@H](C(=O)[C@@H](O)[C@@H](C)O)[C@@H]1Cc2cc3cc(O[C@H]4C[C@@H](O[C@H]5C[C@@H](O)[C@H](O)C(C)O5)[C@H](O)C(C)(O)O4)cc(O)c3c(O)c2C(=O)[C@H]1O[C@H]1C[C@@H](O[C@H]2C[C@@H](O[C@H]3C[C@@H](OC)[C@H](O)C(C)O3)[C@@H](O)C(C)O2)[C@H](O)C(C)O1 (some centres undefined) ?
185 nM

---

# Test system: IGROV1 ovarian
# assay_info: NCI tumour cell line growth inhibition, 48 h
For each record, write down the corresponding TGI.

What TGI value was documented for this compound, COc1cccc(C2C(C(=O)O)=C(CO)Oc3cc4c(cc32)OCO4)c1OC (stereo unspecified) ?
> 100 µM

What TGI value was documented for this compound, `O=c1[nH]c(=S)[nH]c2c1C(c1ccc(Cl)cc1)c1c([nH]c(=S)[nH]c1=O)O2` ?
> 100 µM

What TGI value was documented for this compound, `CC1=C(C(=O)CC(=O)C(=O)Nc2ccccc2C(F)(F)F)Sc2ccccc2N1` ?
> 100 µM

What TGI value was documented for this compound, `CC(=O)[CH-]C(C)=O.CC(=O)[CH-]C(C)=O.[CH2-]CCCCCCC.[CH2-]CCCCCCC.[Sn+4]` ?
49.2 µM

What TGI value was documented for this compound, CNC(=O)N(C1=NCC(C)S1)c1ccc(C)c(C)c1 (stereo unspecified) ?
> 100 µM

What TGI value was documented for this compound, `Brc1ccc(N=NN2CCCC2)cc1` ?
> 100 µM

---

# Tested on: COLO 205 colon
# assay_info: NCI tumour cell line growth inhibition, 48 h
measured_endpoint: TGI

What TGI value was documented for this compound, `O=C(Nc1ccn(CCOC(=O)c2ccccc2)c(=O)n1)c1ccccc1` ?
> 100 µM

What TGI value was documented for this compound, C=C(C)C(=O)OC1CC2(C)OC(=CC2=O)C(C)CC2OC(=O)C(=C)C12 (stereo not given) ?
3.31 µM

What TGI value was documented for this compound, CCOC(=O)C1C(=O)C(C(=O)OCC)C(c2ccccc2)N(C)C1c1ccccc1 (stereo not given) ?
> 100 µM

What TGI value was documented for this compound, COc1ccc(/C(=N\N=C(N)N)C(c2ccc(OC)cc2)C2OC(=O)c3ccccc32)cc1 (stereo not given) ?
> 100 µM

What TGI value was documented for this compound, `COC(=O)C1=C2SCc3ccc(cc3)CSC3=C(C(=O)OC)SC(=C(S2)S1)S3` ?
> 100 µM

What TGI value was documented for this compound, `C[C@@H]1CCC[C@]2(C)O[C@H]2CC[C@@](C)(O)[C@@H]2CC3=C(CO)C(=O)O[C@H]3[C@H]1O2` ?
> 50 µM

What TGI value was documented for this compound, `O=[N+]([O-])/C(C(Cl)=C(Cl)Cl)=C(\Nc1cccc2ccccc12)Sc1ccccc1` ?
28.7 µM

What TGI value was documented for this compound, `CC(=NC1CCCCC1)c1ccccc1O` ?
> 100 µM

What TGI value was documented for this compound, CC1(CO)OC(n2cnc3cncnc32)CC1O (stereo not given) ?
> 100 µM

What TGI value was documented for this compound, Cc1ccc(-c2cc(C(=O)N3N=C(c4ccc(N)cc4)CC3c3ccc(Cl)cc3)c3ccccc3n2)cc1 (stereo not given) ?
9.48 µM
